- Tested on: K. pneumoniae ESBL+
- testProtocol: In vitro MIC, 2010 surveillance isolates
- Format: cell-based, Klebsiella pneumoniae
- assayContext: N America; CLSI breakpoints
We begin with a simple list: items and their reported % R (resistance).
State just the number; it will be interpreted in %.

smi: C[C@H]1c2cccc(O)c2C(=O)C2=C(O)[C@]3(O)C(=O)C(C(N)=O)=C(O)[C@@H](N(C)C)[C@@H]3[C@@H](O)[C@@H]21
% R (resistance), %: 43.5
--
smi: NCC[C@H](O)C(=O)N[C@@H]1C[C@H](N)[C@@H](O[C@H]2O[C@H](CN)[C@@H](O)[C@H](O)[C@H]2O)[C@H](O)[C@H]1O[C@H]1O[C@H](CO)[C@@H](O)[C@H](N)[C@H]1O
% R (resistance), %: 2.8
--
smi: C[C@@H](O)[C@H]1C(=O)N2C(C(=O)O)=C(SCCN=CN)C[C@H]12
% R (resistance), %: 26.9

Which value of % R (resistance) has been reported for CO/N=C(\C(=O)N[C@@H]1C(=O)N2C(C(=O)O)=C(CSc3nc(=O)c(=O)[nH]n3C)CS[C@H]12)c1csc(N)n1 in the records?
95.4
